# Kd annotations
- assayed system: T1, recombinant extracellular domain (ECD) of human TF, amino acid 1-219 of the mature chain, C-terminal His6-tag (human, UniProt P13726 33-251)
- T1 construct: expressed in a mammalian system; used for ELISA and Biacore; biotinylated by NHS-ester for the Fab ELISA; also called His6-TF-ECD1-219; HumanTF1-219
- assay overview: Biacore
Answer format: numeric, nM implied, no suffix.

Illustrative cases are given below, each with its answer.
Reported Kd for M1594 (antibody, V domains shown, complete MAb; FR4 is its own entry; also called H158/L3) VH: EVQLVQSGAEVKKPGESLRISCKGSGYTFPPYWIEWVRQMPGKGLEWMGDILPGTGYTVYSPSFQGHVTISADKSISTAYLQWSSLKASDTAMYYCARSGYYGNSGFAYWGQGTLVTVSS VL: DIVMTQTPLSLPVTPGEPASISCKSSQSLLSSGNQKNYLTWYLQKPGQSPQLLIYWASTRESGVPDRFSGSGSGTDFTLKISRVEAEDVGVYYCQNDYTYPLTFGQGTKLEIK : what is it?
0.35

Reported Kd for M1599 (antibody, V domains shown, complete MAb; FR4 is its own entry; also called H130/L3) VH: EVQLVQSGAEVKKPGESLRISCKGSGYTFGPYWIEWVRQMPGKGLEWMGDILPGTGYTLYSPSFQGHVTISADKSISTAYLQWSSLKASDTAMYYCARSGYYGNSGFAYWGQGTLVTVSS VL: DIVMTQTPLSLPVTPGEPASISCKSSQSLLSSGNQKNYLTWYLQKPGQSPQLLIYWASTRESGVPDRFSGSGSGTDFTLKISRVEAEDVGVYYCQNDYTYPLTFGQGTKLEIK : what is it?
0.39

Reported Kd for M1607 (antibody, V domains shown, complete MAb; FR4 is its own entry; also called H189/L3; TF7M1607) VH: EVQLVQSGAEVKKPGESLRISCKGSGFTFITYWIAWVRQMPGKGLEWMGDILPASSSTNYSPSFQGHVTISADKSISTAYLQWSSLKASDTAMYYCARSGYYGNSGFAYWGQGTLVTVSS VL: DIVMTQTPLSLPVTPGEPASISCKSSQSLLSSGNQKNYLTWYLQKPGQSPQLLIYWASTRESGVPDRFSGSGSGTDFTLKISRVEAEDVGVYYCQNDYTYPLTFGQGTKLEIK : what is it?
0.35

Reported Kd for M1648 (antibody, V domains shown, complete MAb; FR4 is its own entry; also called H171/L327) VH: EVQLVQSGAEVKKPGESLRISCKGSGYTFAPYWIEWVRQMPGKGLEWMGDILPGTGFTTYSPSFQGHVTISADKSISTAYLQWSSLKASDTAMYYCARSGYYGNSGFAYWGQGTLVTVSS VL: DIVMTQTPLSLPVTPGEPASISCKSSQSLLPSWNQSNYLTWYLQKPGQSPQLLIYWASTRESGVPDRFSGSGSGTDFTLKISRVEAEDVGVYYCQNDFTYPLTFGQGTKLEIK : what is it?
0.73

Turning to the following binder.
Reported Kd for M1653 (antibody, V domains shown, complete MAb; FR4 is its own entry; also called H171/L283) VH: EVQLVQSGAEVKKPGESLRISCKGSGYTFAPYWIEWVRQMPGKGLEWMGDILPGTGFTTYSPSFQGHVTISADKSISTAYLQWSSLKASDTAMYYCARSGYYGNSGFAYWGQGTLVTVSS VL: DIVMTQTPLSLPVTPGEPASISCKSSQSLLYTSNQKNYLTWYLQKPGQSPQLLIYWASTRESGVPDRFSGSGSGTDFTLKISRVEAEDVGVYYCQNDDYWPLTFGQGTKLEIK : what is it?
0.16
